Measured IC50 accompanies every entry in the list below.
target_under_test: IDH1 R132H (Homo sapiens, UniProt O75874, R132H)
Sequence (O75874 whole entry R132H): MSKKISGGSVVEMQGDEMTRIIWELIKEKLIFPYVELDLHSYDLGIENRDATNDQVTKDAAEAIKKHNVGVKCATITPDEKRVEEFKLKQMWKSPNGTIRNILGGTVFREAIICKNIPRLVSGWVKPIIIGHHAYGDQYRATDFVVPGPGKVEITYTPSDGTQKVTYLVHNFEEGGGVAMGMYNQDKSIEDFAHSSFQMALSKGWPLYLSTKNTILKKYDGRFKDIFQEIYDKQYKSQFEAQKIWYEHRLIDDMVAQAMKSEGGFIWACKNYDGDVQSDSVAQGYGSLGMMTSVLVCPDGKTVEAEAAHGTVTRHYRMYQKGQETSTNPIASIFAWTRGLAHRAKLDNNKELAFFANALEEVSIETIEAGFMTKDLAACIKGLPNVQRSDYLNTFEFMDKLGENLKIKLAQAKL
assay_overview: IDH1 R132H enzymatic assay (NADPH depletion coupled to diaphorase/resazurin)
Type: biochemical
experimental_conditions: IDH1 R132H enzymatic inhibition, IC50 class
Experimental: Assays were conducted in a 1536-well black solid-bottom plate with a final assay volume of 9 μL. Specifically, for IDH1 R132H, 3 μL of enzyme (4 mM β-ME, 0.0005 mg/mL IDH1 R132H, 150 mM NaCl, 20 mM Tris pH 7.5, 10 mM MgCl2, 0.05% BSA) were added to the plate, followed by the addition of 23 nL of test compound in DMSO. […]

COc1ccc(OC)c(-n2c3c(cc(-c4ccn(-c5ccccc5)n4)c2=O)C(=O)CC(C)(C)C3)c1 : 1 to 5 µM
CCc1cccc(CC)c1-n1c(CC(C)C)c(C(=O)N2CCNCC2(C)C)cc(-c2nc(-c3ccc(Cl)cc3)cs2)c1=O : 0.3 to 1 µM
CCc1cccc(CC)c1-n1c(C)c(C(=O)N2CCCC(C(=O)O)C2)cc(-c2nc(-c3ccc(Cl)cc3)cs2)c1=O (stereo not shown) : 5 to 20 µM
CCc1cccc(CC)c1-n1c(CC(C)C)c(C(=O)NC2CCCCC2O)cc(-c2nc(-c3ccc(Cl)cc3)cs2)c1=O (stereo not shown) : 1 to 5 µM
CCc1cccc(CC)c1-n1c2c(cc(-c3nc(-c4ccc(Cl)cc4)cs3)c1=O)C(=O)OC2 : > 20 µM
COc1ccc(OC)c(-n2c3c(cc(-c4ncc(-c5ccc(Cl)cc5)s4)c2=O)C(=O)CC(C)(C)C3)c1 : > 20 µM

Using the record for `CCc1cccc(CC)c1-n1c(C)c(C(=O)NCCNC)cc(-c2nc(-c3ccc(Cl)cc3)cs2)c1=O` , report its IC50. 1 to 5 µM

###

Catalogue of molecules with associated IC50
target_under_test: IDH1 R132C (Homo sapiens, UniProt O75874, R132C)
Sequence (O75874 whole entry R132C): as the sequence (O75874 whole entry R132H) above, with H132C counted along it
assay_overview: IDH1 R132C enzymatic assay (NADPH depletion coupled to diaphorase/resazurin)
Assay type: biochemical
experimental_conditions: enzymatic inhibition, IDH1 R132C
Experimental: Assays were conducted in a 1536-well black solid-bottom plate with a final assay volume of 9 μL. For IDH1 R132C, 3 μL of enzyme (0.00032 mg/mL IDH1 […], 10% glycerol, 50 mM potassium phosphate pH 6.5, 5 mM MgCl2, 0.03% BSA) were added to the plate, followed by the addition of 23 nL of test compound in DMSO. […]

Guide cases for IC50, answers given:
COc1cccc(OC)c1-n1c(CC(C)C)c(C(=O)N2CCNCC2)cc(-c2nc(-c3ccc(Cl)cc3)cs2)c1=O : 300 to 1000 nM
CN1CCN(c2ccc(-n3c4c(cc(-c5nc(-c6ccc(Cl)cc6)cs5)c3=O)C(=O)CC(C)(C)C4)c(C(F)(F)F)c2)CC1 : 5000 to 20000 nM
CCc1ncc(OC)cc1-n1c(C=C(C)C)c(C(=O)N2CCNCC2)cc(-c2nc(-c3ccc(Cl)cc3)cs2)c1=O : < 300 nM
CCOc1ccccc1-n1c(C=C(C)C)c(C(=O)N2CCNCC2)cc(-c2nc(-c3ccc(Cl)cc3)cs2)c1=O : < 300 nM
CCc1cccc(CC)c1-n1c(CC2CCOC2)c(C(=O)N2CCNCC2)cc(-c2nc(-c3ccc(Cl)cc3)cs2)c1=O (centres unmarked) : < 300 nM

Recorded IC50 for `CCc1ncc(F)cc1-n1c(C=C(C)C)c(C(=O)N2CCNCC2)cc(-c2nc(-c3ccc(C(F)F)cc3)cs2)c1=O` , please? < 300 nM

Could you share which IC50 value was measured for `CCc1cc(C)cc(CC)c1-n1c2c(cc(-c3nc(-c4ccc(Cl)cc4)cs3)c1=O)C(=O)CCC2` ? 1000 to 5000 nM

Given `CCc1cccc(CC)c1-n1c(C=C(C)C)c(C(=O)N2CCNCC2)cc(-c2nc(-c3ccc(C(F)F)cn3)cs2)c1=O` , state its recorded IC50. < 300 nM

So what's the measured IC50 for this one? `CCOc1ncc(F)cc1-n1c(C=C(C)C)c(C(=O)N2CCNCC2)cc(-c2nc(-c3ccc(Cl)cc3)cs2)c1=O` < 300 nM

What value of measured IC50 is listed for CCc1cccc(CC)c1-n1c(C=C(C)C)c(C(=O)N2CCNC(CC)C2)cc(-c2nc(-c3ccc(Cl)cc3)cs2)c1=O (centres unmarked) ? < 300 nM

// IC50 lookup, key: `Cc1ccc(-n2c3c(cc(-c4nc(-c5ccc(Cl)cc5)cs4)c2=O)C(=O)CC(C)(C)C3)c(Cl)c1` 1000 to 5000 nM

# lookup: IC50 of `CCc1cccc(CC)c1-n1c(C=C(C)C)c(C(=O)N2CCNCC2)cc(-c2ccn(-c3ccc(C(F)(F)F)cc3)n2)c1=O` < 300 nM

Form field: reported IC50 of `COc1ccc(C#N)cc1-n1c(C=C(C)C)c(C(=O)N2CCNCC2)cc(-c2nc(-c3ccc(Cl)cc3)cs2)c1=O` 300 to 1000 nM

Which value of IC50 has been reported for `CC1(C)CC(=O)c2cc(-c3nc(-c4ccc(Cl)cc4)cs3)c(=O)n(-c3cc(Cl)ccc3Cl)c2C1` in the records? 300 to 1000 nM

###

target_under_test: IDH1 R132H (Homo sapiens, UniProt O75874, R132H)
assay_overview: IDH1 R132H enzymatic assay (NADPH depletion coupled to diaphorase/resazurin)
Type: biochemical
experimental_conditions: IDH1 R132H enzymatic inhibition, IC50 class
readout_type: IC50

CC1(C)CC(=O)c2cc(-c3nc(-c4ccc(Cl)cc4)cs3)c(=O)n(-c3ccccc3CC(F)(F)F)c2C1 [Compound 115] : 300 to 1000 nM
CCc1cccc(CC)c1-n1c2c(cc(-c3nc(-c4ccccc4OC)cs3)c1=O)C(=O)CC(C)(C)C2 [Compound 179] : 1000 to 5000 nM
CCc1cccc(CC)c1-n1c(CC(C)C)c(C(=O)N2CCNCC2)cc(-c2nc(-c3ccc(Cl)cc3)co2)c1=O [Compound 340] : 300 to 1000 nM

# input for lookup
State the recorded IC50 for this entry: CCSc1ccccc1-n1c2c(cc(-c3nc(-c4ccc(Cl)cc4)cs3)c1=O)C(=O)CC(C)(C)C2 [Compound 134] 1000 to 5000 nM

###

target_under_test: IDH1 R132H (Homo sapiens, UniProt O75874, R132H)
assay_overview: IDH1 R132H enzymatic assay (NADPH depletion coupled to diaphorase/resazurin)
Format: biochemical
experimental_conditions: IDH1 R132H enzymatic inhibition, IC50 class
pIC50: −log10 of the molar value.
readout_type: pIC50

Worked cases, answers included:
CCCCc1ccc(-c2nc(-c3cc(C(=O)N4CCNCC4)c(CC(C)C)n(-c4c(CC)cccc4CC)c3=O)sc2C)cc1 [Compound 44] : 5.30 to 6.00
CCc1cccc(CC)c1-n1c(C=C(C)C)c(C(=O)N2CCNCC2(C)C)cc(-c2nc(-c3ccc(Cl)cc3)cs2)c1=O [Compound 366] : > 6.52

Please report the recorded pIC50 for COc1cc(C(=O)O)ccc1-n1c2c(cc(-c3nc(-c4ccc(Cl)cc4)cs3)c1=O)C(=O)CC(C)(C)C2 [Compound 136] . < 4.70

# get_value(readout='pIC50', item= CC1(C)CC(=O)c2cc(-c3nc(-c4ccc(Cl)cc4)cs3)c(=O)n(-c3ccccc3OC(F)(F)F)c2C1 [Compound 9] ) 5.30 to 6.00

###

target_under_test: IDH1 R132C (Homo sapiens, UniProt O75874, R132C)
assay_overview: IDH1 R132C enzymatic assay (NADPH depletion coupled to diaphorase/resazurin)
Format: biochemical
experimental_conditions: IDH1 R132C enzymatic inhibition, IC50 class
readout_type: IC50

Look over these answered cases.
CC1(C)CC(=O)c2cc(-c3nc(-c4ccc(Cl)cc4)cs3)c(=O)n(-c3ccccc3C3CC3)c2C1 [Compound 50] : 300 to 1000 nM
CCCCc1ccc(-c2nc(-c3cc(C(=O)N4CCNCC4)c(CC(C)C)n(-c4c(CC)cccc4CC)c3=O)sc2C)cc1 [Compound 44] : 1000 to 5000 nM
CCc1cccc(CC)c1-n1c(CC(C)C)c(C(=O)N2CCCC(CO)C2)cc(-c2nc(-c3ccc(Cl)cc3)cs2)c1=O (stereo not shown) [Compound 34] : 300 to 1000 nM

Next molecule, IC50 to be filled in.
What reported IC50 corresponds to COc1ccc(-n2c3c(cc(-c4nc(-c5ccc(Cl)cc5)cs4)c2=O)C(=O)CC(C)(C)C3)c(Cl)c1 [Compound 663] on IDH1 R132C (Homo sapiens, UniProt O75874, R132C)? 1000 to 5000 nM
